Value source: PubChem BioAssay (NCI)

Would you mind telling me the reported growth of each entry?
System: SK-OV-3 ovarian
assay-info: NCI-60 one-dose screen, 48 h (100 = growth as untreated, 0 = no growth, -100 = all killed)
recorded-conditions: 10 µM unless noted
About 83,000 compounds went through this panel and 20% of them were active in at least one assay; those are over-represented in the sample as a whole.
The response must be a number in % with no trailing unit.

Requested field: growth. Item: O=C(Nc1ccc(N=Cc2c(O)[nH]c3ccccc23)cc1)Nc1ccc(S(=O)(=O)Nc2ncccn2)cc1
114

I have this molecule here, NC(=S)n1c(=O)n(-c2cccc(C(F)(F)F)c2)c(=O)c2cc(-c3ccc(F)cc3F)ccc21 , and I need its recorded growth.
-2.63

Entry C#CCOc1ccccc1C(OC(=O)c1ccccc1)C(=O)NC(C)(C)C(C)(C)C (stereo unspecified) has what growth?
95.8

I am curious: what growth value has been reported for CCc1nnc(NC(=O)c2cc(-c3ccc(Cl)cc3Cl)oc2C)s1 ?
106

Returns the measured growth for the input molecule. Input: CC(=O)c1c([Si](C)(C)C)c2cc(C#N)ccn2c1C(=O)c1ccc(Br)cc1
98.3

Which growth value belongs to CN(C)S(=O)(=O)c1ccc(-c2nc(C(Cl)Cl)nc3cc(-c4ccccc4)nn23)cc1 ?
92.2

Bench note: what growth did CC1=C(C)C(=O)C(Nc2cccc(C(F)(F)F)c2)=C(Br)C1=O show?
86

Recorded growth for O=c1oc2ccc(-c3ccc(F)cc3F)cc2c(=O)n1-c1ccc(Br)cc1F , please?
63.9

Need growth, item CC(C)NC(=O)c1cc(-c2ccc(NC(=O)Nc3ccc(F)c(C(F)(F)F)c3)cc2)nc2cccnc12
105

Give its growth value. Item: CC1=C(C)C(=O)C(Nc2ccc(C)c(C)c2)=C(Br)C1=O
100

Which growth value belongs to O=C(Nc1ccc(Cl)c(C(F)(F)F)c1)Nc1ccc2c(ccn2C(=O)c2cccc(F)c2)c1 ?
99.1

====

Test system: SF-295 CNS
assay-info: NCI-60 one-dose screen, 48 h (100 = growth as untreated, 0 = no growth, -100 = all killed)
recorded-conditions: 10 µM unless noted
The panel holds about 83,000 compounds, 20% with a hit somewhere; the sample as a whole holds those more often.
Give measured growth for each item. Keep answers brief.
State the answer as a number, implicitly in %.

Returns the measured growth for the input compound. Input: COc1cc(C(=O)c2cc(C(C)=O)c3c(C)cccn23)cc(OC)c1OC
109

Dear colleague, I am looking for the recorded growth of the following compound: C=C(C)[C@@H]1CC[C@]2(COP(=O)(OCC)OCC)CC[C@]3(C)[C@H](CC[C@@H]4[C@@]5(C)CC[C@H](OP(=O)(OCC)OCC)C(C)(C)[C@@H]5CC[C@]43C)[C@@H]12
14.6

Sample COc1cc(C(C)=C(c2ccc(OCCN(C)C)cc2)c2ccc(OCCN(C)C)cc2)ccc1F — what was its growth?
100

What value of measured growth is listed for CCn1c2ccc(/C=N/N(C)S(=O)(=O)CCN(C)C)cc2c2cc(/C=N/N(C)S(=O)(=O)CCN(C)C)ccc21 ?
80

Item under review: OCC(Nc1ncnc2ccc(-c3cnc4cnccn34)cc12)c1ccccc1 (configuration not stated) . Reported growth?
64.7

Entry CC1=C(C)C(=O)C(Nc2ccc3c(c2)OCO3)=C(Br)C1=O has what growth?
96.8

Give the measured growth of Cn1cc(-c2nn3cc(-c4ccncc4)nc3s2)c2cc(F)ccc21 .
96.7
